- testedSystem: apical domain of CD71 (Screen 3: 'cynomolgus apical domain of human CD71') (cynomolgus (as paragraph 454 words it; ambiguous))
- measurementProtocol: primary ELISA
RLU for assorted binders
Record the value in RLU, omitting the unit from your answer.

In: Identify measured RLU associated with CD71-binding FN3 domain SEQ ID NO: 277 (designed binder) MSLPAPKNLVVSRVTEDSARLSWTAPDAAFDSFEIGYFELTYYGEAIVLTVPGSERSYDLTGLKPGTEYWVQIGGVKGGGFSEPLSAIFTT
Out: 5.75e+06

Let us examine a further case.
In: Determine its reported RLU: CD71-binding FN3 domain SEQ ID NO: 289 (designed binder) MSLPAPKNLVVSRVTEDSARLSWTAPDAAFDSFEIAYFEIAWLGEAIVLTVPGSERSYDLTGLKPGTEYWVQIGGVKGGAYSTPLSAIFTT
Out: 5.2e+06
